Please consider the recorded pIC50 for Acetylcholinesterase (Homo sapiens, UniProt P22303) in what follows.
Answers are plain numbers, as −log10 of the molar value.

Give measured pIC50 for every item shown.
1. COc1ccc(-c2nc(NC3CCN(Cc4ccc(C(F)(F)F)cc4)CC3)sc2-c2ccc(OC)cc2)cc1
2. Fc1ccc(CN2CCC(Nc3nc(-c4ccc(Cl)cc4)c(-c4ccc(Cl)cc4)s3)CC2)c(Cl)c1
3. N#Cc1ccc(CN2CCC(Nc3nc(-c4ccc(Cl)cc4)c(-c4ccc(Cl)cc4)s3)CC2)cc1
4. Fc1ccc(CN2CCC(CNc3nc(-c4ccc(Cl)cc4)c(-c4ccc(Cl)cc4)s3)CC2)c(C(F)(F)F)c1
5. Cc1ccc(-c2nc(NCC3CCN(Cc4ccccc4C(F)(F)F)CC3)sc2-c2ccc(C)cc2)cc1
6. COc1ccc(CN2CCC(Nc3nc(-c4ccc(OC)cc4)c(-c4ccc(OC)cc4)s3)CC2)cc1
7. Fc1ccc(CN2CCC(CNc3nc(-c4ccc(Cl)cc4)c(-c4ccc(Cl)cc4)s3)CC2)c(Cl)c1
8. Cc1ccc(-c2nc(NC(=O)C3CCN(Cc4cc(F)cc(F)c4)CC3)sc2-c2ccc(C)cc2)cc1

Given back:
1: 6.12; 2: 6.43; 3: 5.99; 4: 5.91; 5: 6.40; 6: 6.11; 7: 6.28; 8: 5.60

Asked: Find the measured pIC50 of "Cc1ccc(-c2nc(NC(=O)C3CCN(Cc4ccc(C#N)cc4)CC3)sc2-c2ccc(C)cc2)cc1" with Acetylcholinesterase (Homo sapiens, UniProt P22303) as test system.
Sequence (P22303 whole entry): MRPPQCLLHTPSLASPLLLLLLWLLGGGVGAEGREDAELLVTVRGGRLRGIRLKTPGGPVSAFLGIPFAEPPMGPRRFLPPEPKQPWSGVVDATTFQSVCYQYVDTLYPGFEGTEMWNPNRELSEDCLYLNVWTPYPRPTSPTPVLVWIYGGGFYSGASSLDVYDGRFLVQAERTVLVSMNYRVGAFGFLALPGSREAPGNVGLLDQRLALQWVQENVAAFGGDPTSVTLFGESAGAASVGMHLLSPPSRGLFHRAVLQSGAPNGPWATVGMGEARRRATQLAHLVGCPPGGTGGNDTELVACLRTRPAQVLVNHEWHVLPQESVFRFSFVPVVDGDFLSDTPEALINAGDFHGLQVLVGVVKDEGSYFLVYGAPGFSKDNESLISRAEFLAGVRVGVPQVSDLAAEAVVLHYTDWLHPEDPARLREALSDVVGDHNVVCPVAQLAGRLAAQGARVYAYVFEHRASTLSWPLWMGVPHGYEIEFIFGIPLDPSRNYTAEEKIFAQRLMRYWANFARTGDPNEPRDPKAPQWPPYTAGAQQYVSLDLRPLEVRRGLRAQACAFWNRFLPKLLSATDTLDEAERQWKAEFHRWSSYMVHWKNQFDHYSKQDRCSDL
Given back: 5.89
